# human CXCR6 (Homo sapiens, UniProt O00574): pIC50 values follow
# Sequence (O00574 whole entry): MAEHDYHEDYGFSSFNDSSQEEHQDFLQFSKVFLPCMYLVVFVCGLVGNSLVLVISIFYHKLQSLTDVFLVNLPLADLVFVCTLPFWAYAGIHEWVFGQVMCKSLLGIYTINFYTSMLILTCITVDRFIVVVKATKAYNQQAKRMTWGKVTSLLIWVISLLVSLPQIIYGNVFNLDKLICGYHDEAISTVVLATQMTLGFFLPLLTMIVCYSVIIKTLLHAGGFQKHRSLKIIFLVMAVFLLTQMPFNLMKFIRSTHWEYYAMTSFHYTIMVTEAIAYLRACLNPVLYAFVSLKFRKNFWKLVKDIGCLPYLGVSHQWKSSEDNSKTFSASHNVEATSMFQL
pIC50: −log10 of the molar value.

As a guide, the following entries are already answered.
COMPOUND: CCOc1cc(NC(=O)C2CCC=C[C@@H]2O)ccc1S(=O)(=O)Nc1cccc(OC(F)(F)F)c1 (stereo partly shown) [Example 1.303]
pIC50: ≥ 6.70
--
COMPOUND: CCOc1cc(NC(=O)C(O)c2cccc(Cl)c2)ccc1S(=O)(=O)Nc1cccc(OC(F)(F)F)c1 (stereo not shown) [Example 1.528]
pIC50: ≥ 6.70
--
COMPOUND: CCOc1cc(NC(=O)c2cccnc2N)ccc1S(=O)(=O)Nc1cccc(OC(F)(F)F)c1 [Example 1.162]
pIC50: ≥ 6.70
--
COMPOUND: CCOc1cc(NC(=O)[C@@H](CO)c2ccccc2)ccc1S(=O)(=O)Nc1cccc(C(C)(C)O)c1 [Example 1.270]
pIC50: 4.70 to 5.70
--
COMPOUND: CCOc1cc(NC(=O)[C@@H]2C[C@@H](O)[C@@H](O)C2)ccc1S(=O)(=O)Nc1cccc(OC(F)(F)F)c1 [Example 1.280]
pIC50: 4.70 to 5.70
--
COMPOUND: COc1cc(NC(=O)CC2CCCCC2)ccc1S(=O)(=O)Nc1cccc(C(F)(F)F)c1 [Example 1.344]
pIC50: ≥ 6.70
--
COMPOUND: CCOc1cc(NC(=O)C2CC3C=CC2O3)ccc1S(=O)(=O)Nc1cccc(OC(F)(F)F)c1 (stereo not shown) [Example 1.046]
pIC50: 6.12 to 6.70
--
COMPOUND: COc1cc(NC(=O)c2ccnn2C)ccc1S(=O)(=O)Nc1ccc(F)c(OC(F)(F)F)c1 [Example 1.409]
pIC50: ≥ 6.70

Field pIC50 (entry CCOc1cc(NC(=O)[C@H]2CCOC[C@H]2CC)ccc1S(=O)(=O)Nc1cccc(OC(F)(F)F)c1 (racemic) [Example 1.233] ) reads ≥ 6.70

Field pIC50 (entry CCOc1cc(NC(=O)[C@@H](N)c2ccccc2)ccc1S(=O)(=O)Nc1cccc(OC(F)(F)F)c1 [Example 1.086] ) reads ≥ 6.70

====

target: human CXCR6 (Homo sapiens, UniProt O00574)
PROPERTY: IC50

As a guide, the following entries are already answered.
COMPOUND: CCOc1cc(NC(=O)[C@H]2CC=CC[C@H]2C(=O)O)ccc1S(=O)(=O)Nc1ccc(C)c(OC(F)(F)F)c1 (racemic)
RESULT: 750 to 2000 nM

COMPOUND: CCOc1cc(NC(=O)C(CO)C(C)C)ccc1S(=O)(=O)Nc1cccc(OC(F)(F)F)c1 (stereo not drawn)
RESULT: ≤ 200 nM

COMPOUND: CCOc1cc(NC(=O)C(CO)CCC(C)C)ccc1S(=O)(=O)Nc1cccc(OC(F)(F)F)c1 (stereo not drawn)
RESULT: ≤ 200 nM

The compound Cc1cc(NC(=O)c2ccnn2C)cc(C)c1S(=O)(=O)Nc1cccc(C(F)(F)F)c1 on human CXCR6 (Homo sapiens, UniProt O00574): IC50 was 200 to 750 nM

The compound Cc1cc(NC(=O)C(F)(F)F)ccc1S(=O)(=O)Nc1cccc(C(F)(F)F)c1 on human CXCR6 (Homo sapiens, UniProt O00574): IC50 was 2000 to 20000 nM

The compound CCOc1cc(NC(=O)[C@H]2CC[C@@H](OC)CC2)ccc1S(=O)(=O)Nc1cccc(OC(F)(F)F)c1 on human CXCR6 (Homo sapiens, UniProt O00574): IC50 was 750 to 2000 nM

====

target: human CXCR6 (Homo sapiens, UniProt O00574)
PROPERTY: IC50

As a guide, the following entries are already answered.
COMPOUND: CCOc1cc(NC(=O)[C@@H](CO)C(C)C)ccc1S(=O)(=O)Nc1cccc(OC(F)(F)F)c1
IC50: ≤ 200 nM
--
COMPOUND: CCOc1cc(NC(=O)C(CNC(C)=O)c2ccccc2)ccc1S(=O)(=O)Nc1cccc(OC(F)(F)F)c1 (stereo not drawn)
IC50: ≤ 200 nM
--
COMPOUND: CCOc1cc(NC(=O)C(CO)C2CCCC2)ccc1S(=O)(=O)Nc1cccc(OC(F)(F)F)c1 (stereo not drawn)
IC50: ≤ 200 nM

The compound CCn1nccc1C(=O)Nc1ccc(S(=O)(=O)Nc2cccc(C(F)(F)F)c2)c(C)c1 on human CXCR6 (Homo sapiens, UniProt O00574): IC50 was 200 to 750 nM

The compound CCOc1cc(NC(=O)[C@@H](CO)c2ccccc2)ccc1S(=O)(=O)Nc1cccc(OC(F)(F)F)c1 on human CXCR6 (Homo sapiens, UniProt O00574): IC50 was ≤ 200 nM

The compound CCOc1cc(NC(=O)[C@@H](NC(C)=O)C(C)C)ccc1S(=O)(=O)Nc1cccc(C(F)(F)F)c1 on human CXCR6 (Homo sapiens, UniProt O00574): IC50 was ≤ 200 nM

====

biological target: human CXCR6 (Homo sapiens)
pIC50: −log10 of the molar value.
PROPERTY: pIC50

COMPOUND: CCOc1cc(NC(=O)C(C)C(O)C2CCOCC2)ccc1S(=O)(=O)Nc1cccc(OC(F)(F)F)c1 (stereo not shown)
TARGET UNDER TEST: human CXCR6 (Homo sapiens)
pIC50: 6.12 to 6.70

Field pIC50 (entry CCOc1cc(NC(=O)C2CCC(=O)N2C)ccc1S(=O)(=O)Nc1cccc(OC(F)(F)F)c1 (stereo not shown) ) reads 5.70 to 6.12

Field pIC50 (entry CCOc1cc(NC(=O)[C@@H](CO)c2ccccc2)ccc1S(=O)(=O)Nc1ccc(Cl)c(C)c1 ) reads 6.12 to 6.70

Field pIC50 (entry CCOc1cc(NC(=O)[C@@H]2CCCCC[C@@H]2O)ccc1S(=O)(=O)Nc1cccc(OC(F)(F)F)c1 ) reads ≥ 6.70
